assay: Compound 122 saliva concentrations in healthy human subjects after oral administration (HPLC-MS/MS); assay type: in vivo; conditions: human, saliva, po, 30 mg, EM + paroxetine; Day 16; 30 mg b.i.d. oral; 24 hr; read-out: Mean saliva concentration, EM + paroxetine, Mean ± SD

{"compound": "COc1ccc(OC(F)(F)F)cc1CNC1CCCNC1c1ccccc1 (stereo not shown)", "concentration at 24 h": "9.67 ng/mL"}

====

assay: Compound 122 saliva concentrations in healthy human subjects after oral administration (HPLC-MS/MS); format: in vivo; conditions: human, saliva, po, 30 mg, EM; Day 11; 30 mg q.d. oral; 2 hr; read-out: Mean saliva concentration, EM, Mean ± SD

{"compound": "COc1ccc(OC(F)(F)F)cc1CNC1CCCNC1c1ccccc1 (stereo not shown) [Compound 122]", "concentration at 2 h (ng/mL)": 3.07}

====

assay: Compound 122 saliva concentrations in healthy human subjects after oral administration (HPLC-MS/MS); assay type: in vivo; conditions: human, saliva, po, 30 mg, PM; Day 11; 30 mg q.d. oral; 8 hr; read-out: Mean saliva concentration, PM, Mean ± SD

{"molecule": "COc1ccc(OC(F)(F)F)cc1CNC1CCCNC1c1ccccc1 (stereo not shown)", "concentration at 8 h (ng/mL)": 14}

====

test: Compound 122 saliva concentrations in healthy human subjects after oral administration (HPLC-MS/MS); type: in vivo; conditions: human, saliva, po, 10 mg, EM; Day 6; 10 mg b.i.d. oral; 4 hr; read-out: Mean saliva concentration, EM, Mean ± SD

{"compound": "COc1ccc(OC(F)(F)F)cc1CNC1CCCNC1c1ccccc1 (stereo not shown)", "concentration at 4 h [ng/mL]": 0.987}

====

Assay: Compound 122 saliva concentrations in healthy human subjects after oral administration (HPLC-MS/MS)
Format: in vivo
Conditions: human, saliva, po, 10 mg, EM + paroxetine; Day 6; 10 mg b.i.d. oral; 2 hr; read-out: Mean saliva concentration, EM + paroxetine, Mean ± SD
Experimental: Stock solutions of Compound 122-HCl salt and internal standard 2-difluoromethoxy-5-trifluoromethoxy-benzyl)-(2-phenyl-piperidin-3-yl)-amine] […] The analysis was performed on a Perkin Elmer SCIEX API 3000 triple quadrupole mass spectrometer operated in the positive ion mode. […] Analyte and IS responses were measured using multiple reaction monitoring (MRM). […] Product ions at m/z 160.0 were monitored for both drug and IS runs. […]
reportedEndpoint: concentration at 2 h (ng/mL)

{"compound": "COc1ccc(OC(F)(F)F)cc1CNC1CCCNC1c1ccccc1 (stereo not shown) [Compound 122]", "reportedEndpoint": "concentration at 2 h", "endpointResult": 1.92}

====

assay: Compound 122 saliva concentrations in healthy human subjects after oral administration (HPLC-MS/MS); type: in vivo; conditions: human, saliva, po, 100 mg, PM; Day 21; 100 mg q.d. oral; 8 hr; read-out: Mean saliva concentration, PM, Mean ± SD
reportedEndpoint: concentration at 8 h (ng/mL)

{"molecule": "COc1ccc(OC(F)(F)F)cc1CNC1CCCNC1c1ccccc1 (stereo not shown)", "endpointResult": 41.3}

====

test: Compound 122 saliva concentrations in healthy human subjects after oral administration (HPLC-MS/MS); assay type: in vivo; details: human, saliva, po, 30 mg, EM + paroxetine; Day 11; 30 mg q.d. oral; 4 hr; read-out: Mean saliva concentration, EM + paroxetine, Mean ± SD

{"molecule": "COc1ccc(OC(F)(F)F)cc1CNC1CCCNC1c1ccccc1 (stereo not shown) [Compound 122]", "concentration at 4 h / ng/mL": 9.51}
